Assay: Cytotoxicity, alamar blue
Format: cell-based, BALB/c mice
Details: BALB/c, primary mouse peritoneal macrophages, read-out: Cytotoxicity (CC50 ± SD)
OBSERVATION TYPE: CC50 at 48 h (µM)
Your answer is read as µM, so omit the unit and give the number.

Query `CCN1CCN(C(=S)c2ccc(OC)cc2)CC1` yields CC50 at 48 h of 127

CC50 at 48 h reading for `CC(C)OCCCn1c(=N)c(C(N)=S)cc2c(=O)n3ccccc3nc21` : 172

The recorded CC50 at 48 h for entry OC(COc1cccc2ccccc12)CN1CCCC1 (stereo not drawn) equals 125

The measured CC50 at 48 h associated with C[C@@H]1[C@H](O)[C@@H](C)/C=C/C=C/C=C/C=C/C=C/C=C/C=C/[C@H](O[C@@H]2O[C@H](C)[C@@H](O)[C@H](N)[C@@H]2O)C[C@@H]2O[C@](O)(C[C@@H](O)C[C@@H](O)[C@H](O)CC[C@@H](O)C[C@@H](O)CC(=O)O[C@H]1C)C[C@H](O)[C@H]2C(=O)O [AmB, amphotericin B deoxycholate, reference compound] reads 21

Briefly, CC50 at 48 h measured for `Nc1cnn(Cc2ccccc2F)c1` : 172

* * *

Assay: Cytotoxicity, alamar blue
Type: cell-based, BALB/c mice
Settings: BALB/c, mouse peritoneal macrophages, read-out: Cytotoxicity (CC50 ± SD)
Protocol: The cytotoxicity of the test compounds was assessed in primary cultures of mouse peritoneal macrophages as reported elsewhere, with minor modifications. […] Incubation was continued for another 6–8 h at 37°C and 5% CO2 to measure the fluorescence of the reduced dye in a plate reader (excitation: 485 nm, emission: 590, scaling factor: 10/10, Fluoroskan Ascent FL 2.5 plate reader—Thermo Labsystems, Waltham, MA, United States). […]
OBSERVATION TYPE: CC50 at 48 h

The compound O=C(Cn1cc([N+](=O)[O-])nc1[N+](=O)[O-])N1CCN(c2ccccc2)CC1 [Compound 7] showed CC50 at 48 h equal to 25.2 µM
